Experimental protocol: NCI Yeast Anticancer Drug Screen. Data for the sgs1 mgt1 strain (AID 161);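 further: 0% = growth of cultures given vehicle only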
Reported conditions: S. cerevisiae sgs1 mgt1 strain, at 50.0 µM (retest, dose inferred, filed as 5.0), stronger effect = higher value
This is part of a sample that, as a whole, favours compounds with a hit. Of some 79,000 tested, about 15% had one in any assay. Activity calls are given as the source filed them. No stated cut-off is given here; in the data, active means growth inhibition above about 70%; inactive means the rest.
Measured growth inhibition accompanies every entry in the list below.

[
  {
    "Compound": "CCCCCC/C(C)=N/Nc1ccc([N+](=O)[O-])cc1[N+](=O)[O-]",
    "growth inhibition": "15% (inactive)"
  },
  {
    "Compound": "O=c1oc(C(C(F)(F)F)C(F)(F)F)nc2ccccc12",
    "growth inhibition": "12% (inactive)"
  },
  {
    "Compound": "O=C1c2ccccc2C(=O)C1C(c1ccc(F)cc1)C1C(=O)c2ccccc2C1=O",
    "growth inhibition": "41% (inactive)"
  },
  {
    "Compound": "O=S(=O)(O)CC[S][Sn]([S]CCS(=O)(=O)O)([c]1ccccc1)[c]1ccccc1",
    "growth inhibition": "95% (active)"
  },
  {
    "Compound": "O=C(Cc1ccccc1F)NC1=C(Cl)C(=O)c2ccccc2C1=O",
    "growth inhibition": "54% (inactive)"
  }
]

====

Experimental protocol: NCI Yeast Anticancer Drug Screen. Data for the bub3 strain (AID 167)
Reported conditions: S. cerevisiae bub3 mutant strain, at 50.0 µM
Compounds without any hit were thinned out: in the full panel of roughly 79,000, 15% have a hit. The source made the active and inactive calls. Cut-off read from the data, not from the text of the source: active = growth inhibition above about 70%; inactive = the rest.
Outcome codes: active, inactive

[
  {
    "Compound": "BrC/C=C/C[P+](c1ccccc1)(c1ccccc1)c1ccccc1",
    "Group": "active"
  },
  {
    "Compound": "C#CC1=CC(=O)C(OC)=CC1=O",
    "Group": "inactive"
  },
  {
    "Compound": "Cc1ccc2c(/C=C/c3ccc(N(C)C)cc3)ccnc2c1C",
    "Group": "active"
  },
  {
    "Compound": "O=[N+]([O-])C(=C(NCc1ccccc1)NCc1ccccc1)C(Cl)=C(Cl)Cl",
    "Group": "inactive"
  },
  {
    "Compound": "C[n+]1c(-c2ccc(NC(=O)c3ccc(C(=O)Nc4ccc(-c5cn6ccccc6[n+]5C)cc4)cc3)cc2)cn2ccccc21",
    "Group": "inactive"
  },
  {
    "Compound": "CCN(CC)CCSc1c2ccccc2nc2cc(NCC(=O)Nc3ccccc3-c3ccccc3NC(=O)CNc3ccc4c(SCCN(CC)CC)c5ccccc5nc4c3)ccc12",
    "Group": "active"
  },
  {
    "Compound": "O=C(O)[C@H]1[C@@H](C2CCCCC2)O[C@@H](C2CCCCC2)O[C@H]1C(F)(F)F",
    "Group": "active"
  },
  {
    "Compound": "CN(C)N=Nc1ccc(NC=O)cc1",
    "Group": "active"
  },
  {
    "Compound": "O=C1OC(c2ccc(Cl)cc2)Sc2ccccc21 (stereo not given)",
    "Group": "active"
  },
  {
    "Compound": "O=S(=O)(O)CC[S][Sn]([S]CCS(=O)(=O)O)([c]1ccccc1)[c]1ccccc1",
    "Group": "active"
  }
]

====

Experimental protocol: NCI Yeast Anticancer Drug Screen. Data for the rad18 strain (AID 177)
Reported conditions: S. cerevisiae rad18 mutant growth inhibition; at 11.0 µM; stronger effect = higher value
The panel holds about 79,000 compounds, 15% with a hit somewhere; the sample as a whole holds those more often.

[
  {
    "Compound": "O=C1C(Br)=CC(Br)(Br)C=C1Br",
    "growth inhibition / %": 26
  },
  {
    "Compound": "Cn1c(COc2ccc(/C=N/NC(=O)CCC(=O)N/N=C/c3ccc(OCc4c[n+]5ccccc5n4C)cc3)cc2)c[n+]2ccccc12",
    "growth inhibition / %": 28
  },
  {
    "Compound": "c1cncc(C(Nc2cccc3cccnc23)Nc2cccc3cccnc23)c1",
    "growth inhibition / %": 92
  },
  {
    "Compound": "CC(O)CN1C(=O)c2cccc3cc([N+](=O)[O-])cc(c23)C1=O (stereo unspecified)",
    "growth inhibition / %": 9
  },
  {
    "Compound": "CN(C)N1C(=O)SCC(c2ccccc2)(c2ccccc2)C1=O",
    "growth inhibition / %": 26
  },
  {
    "Compound": "[Cl][Pt+2][Cl].[NH-]CC1(C[NH-])CCCCC1",
    "growth inhibition / %": 89
  }
]

====

Measured growth inhibition accompanies every entry in the list below.
Experimental protocol: NCI Yeast Anticancer Drug Screen. Data for the rad50 strain (AID 155);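 further: 0% = growth of vehicle-only cultures of the same strain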
Reported conditions: S. cerevisiae rad50 strain growth inhibition; at 33.0 µM; stronger effect = higher value
This is part of a sample that, as a whole, favours compounds with a hit. Of some 79,000 tested, about 15% had one in any assay.
Readout kind: growth inhibition (%)

[
  {
    "Compound": "O=C1c2ccccc2C(=O)C1C(c1ccc(F)cc1)C1C(=O)c2ccccc2C1=O",
    "Readout kind": "growth inhibition",
    "Units label": "%",
    "Data value": 28
  },
  {
    "Compound": "c1cc(Nc2ccc3c(c2)OCO3)c2cc(C3CCCCC3)ccc2n1",
    "Readout kind": "growth inhibition",
    "Units label": "%",
    "Data value": 5
  },
  {
    "Compound": "CCCCCC/C(C)=N/Nc1ccc([N+](=O)[O-])cc1[N+](=O)[O-]",
    "Readout kind": "growth inhibition",
    "Units label": "%",
    "Data value": -32
  },
  {
    "Compound": "COc1ccc(C(=O)NCCN(C)C)c2nc3ccccc3cc12",
    "Readout kind": "growth inhibition",
    "Units label": "%",
    "Data value": 95
  },
  {
    "Compound": "Cc1cc(NC(=S)SCc2ccc(Cl)cc2)ccc1Cl",
    "Readout kind": "growth inhibition",
    "Units label": "%",
    "Data value": 97
  },
  {
    "Compound": "COc1ccc(/C(=N/O)c2ccccc2C2=Nc3ccccc3C(NCc3ccccc3)O2)cc1C (stereo unspecified)",
    "Readout kind": "growth inhibition",
    "Units label": "%",
    "Data value": 59
  },
  {
    "Compound": "Cc1ccc2c(/C=C/c3ccc(N(C)C)cc3)ccnc2c1C",
    "Readout kind": "growth inhibition",
    "Units label": "%",
    "Data value": 14
  },
  {
    "Compound": "CCC(C)C(=O)OCC(=O)c1ccc(-c2ccccc2)cc1 (stereo unspecified)",
    "Readout kind": "growth inhibition",
    "Units label": "%",
    "Data value": 1
  },
  {
    "Compound": "O=C(O)[C@H]1[C@@H](C2CCCCC2)O[C@@H](C2CCCCC2)O[C@H]1C(F)(F)F",
    "Readout kind": "growth inhibition",
    "Units label": "%",
    "Data value": -4
  },
  {
    "Compound": "Cc1cc(NCCCN(C)C)c2ccc3c(ccc4c(NCCCN(C)C)cc(C)nc43)c2n1",
    "Readout kind": "growth inhibition",
    "Units label": "%",
    "Data value": 21
  },
  {
    "Compound": "CC(O)CN1C(=O)c2cccc3cc([N+](=O)[O-])cc(c23)C1=O (stereo unspecified)",
    "Readout kind": "growth inhibition",
    "Units label": "%",
    "Data value": 88
  },
  {
    "Compound": "CCCCCCCCCCCCCCCCOCC(Cl)COP(=O)(O)OP(=O)(O)OCC1OC(n2cnc3c(N)ncnc32)C(O)C1O (stereo unspecified)",
    "Readout kind": "growth inhibition",
    "Units label": "%",
    "Data value": 86
  },
  {
    "Compound": "COC(=O)C1(N2CCOCC2)CCC([C@@H](c2ccccc2)C(C)[N+](=O)[O-])C1 (stereo partly specified)",
    "Readout kind": "growth inhibition",
    "Units label": "%",
    "Data value": 43
  },
  {
    "Compound": "COc1cc(C(C)(C)C)cc(OC)c1C(O)(c1c(OC)cc(C(C)(C)C)cc1OC)c1c(OC)cc(C(C)(C)C)cc1OC",
    "Readout kind": "growth inhibition",
    "Units label": "%",
    "Data value": 93
  },
  {
    "Compound": "CCN(CC)c1ccc(N=Nc2cc(S(=O)(=O)O)ccc2O)c(O)c1",
    "Readout kind": "growth inhibition",
    "Units label": "%",
    "Data value": -28
  },
  {
    "Compound": "O=C(/C(=C/c1ccccc1)CBr)c1ccccc1",
    "Readout kind": "growth inhibition",
    "Units label": "%",
    "Data value": 96
  },
  {
    "Compound": "Oc1ccc(Cc2nccc3cc(O)c(O)cc23)cc1O",
    "Readout kind": "growth inhibition",
    "Units label": "%",
    "Data value": 11
  },
  {
    "Compound": "CC(=O)c1ccc(NCN2C(=O)c3ccccc3C2=O)cc1",
    "Readout kind": "growth inhibition",
    "Units label": "%",
    "Data value": 85
  },
  {
    "Compound": "O=S(=O)(CCC[C@H]1[C@@H](CCOCc2ccccc2)C2CCCN1O2)c1ccccc1 (stereo partly specified)",
    "Readout kind": "growth inhibition",
    "Units label": "%",
    "Data value": 10
  },
  {
    "Compound": "CCOC(=O)c1[nH]c2cccc3c2c1CC(Br)C3=O (stereo unspecified)",
    "Readout kind": "growth inhibition",
    "Units label": "%",
    "Data value": 57
  },
  {
    "Compound": "CC(C)(C)[Si](C)(C)OCC1OC(n2cnc3c(N)ncnc32)C2OC(=S)OC12 (stereo unspecified)",
    "Readout kind": "growth inhibition",
    "Units label": "%",
    "Data value": 17
  }
]
